experiment: soluble on expression in E. coli; label from the status in PepcDB or PDB records

Input sequence: GPGSMPSGVTHSLSLSSLPVVSLLPRWHKAEVVSHRQLTPTATSAQERAKRGKTSVLAAANTAAMTATESKGFAELYHQLLQDGVQLQKELEAYYLRQEGYIRKRVAVLDEMQENIADERRCLELQHQECRAQISTTRKQAASFLSDERKVSQAVRHAQPFLAAQEAEIDKRLDELQREKEREDTALLNVMARQEALGKQEALLACRERQRFLEEQDLQKALIEMRSLNREMEERRKSLLRKHGTVADWDRKLESRERELLVCQDQLRENLKALEQEENALGIHPAQRTAVAPAVSQRTVMDDHDMSIEHDSACEEIDYED
soluble on expression in E. coli: not soluble
--
Input sequence: DTILCFGDCRPLHKEAKRWAKSKGIRFLAFEEGYLRPQFITVEEGGVNAYSSLPRDPDFYRKLPDMPAPHVENLKPSTMKRIGHAMWYYLMGWHYRHEFPRYRHHKSFSPWYEARCWVRAYWRKQLYKVTQRKVLPRLMNELDQRYYLAVLQVYNDSQIRNHSNYNDVRDYINEVMYSFSRKAPKESYLVIKHHPMDRGHRLYRPLIKRLSKEYGLDERVIYVHDLPMPELLRHAKAVVTINSTAGISALIHNKPLKVMGNALYDIKGLTYQGHLHQFWQADFKPDMKLFKKFRGYLLVKTQVNGGYY
soluble on expression in E. coli: not soluble

====

test: soluble on expression in E. coli; label from the status in PepcDB or PDB records
Observable: soluble on expression in E. coli

Input sequence: MVKKMCQDYLSSSGLCSQETLEINNDKVAESLGITEFLRKKEIHPDNLGPKHLSRDMDGEQLEGASSEKREREAAEEGLASVKRPRREALSNDTTESLAANSRGREKPRPLHALAAGTIVSQEEDIVTVTDAEGRACGWAR
Observable: soluble on expression in E. coli
Result value: soluble
//
Input sequence: MSKVAMVTGGAQGIGRGISEKLAADGFDIAVADLPQQEEQAAETIKLIEAADQKAVFVGLDVTDKANFDSAIDEAAEKLGGFDVLVNNAGIAQIKPLLEVTEEDLKQIYSVNVFSVFFGIQAASRKFDELGVKGKIINAASIAAIQGFPILSAYSTTKFAVRGLTQAAAQELAPKGHTVNAYAPGIVGTGMWEQIDAELSKINGKPIGENFKEYSSSIALGRPSVPEDVAGLVSFLASENSNYVTGQVMLVDGGMLYN
Observable: soluble on expression in E. coli
Result value: soluble

====

assay: soluble on expression in E. coli; label from the status in PepcDB or PDB records
Observable: soluble on expression in E. coli

Input sequence: MSLKANFYKNRVCLNVLAGSVDNAADIYDAAEGHVLVGVLSKNYPDVDTAVEDMKKYSEVTNNAVSVGLGAGDPNQSMMVSLISQHVQPQHINQVFTGVATSRALAGQDKSIVNGLISPTGTVGMVKISTGPLSSRSEDAIVPVETAIAMLKDMGGSSVKYFPMGGLETREEFACVAKACADKDFWLEPTGGIDLENYEEIMQIALDAGVSKIIPHIYSSIIDKATGNTRPEDVKTLLDMTKKLLN
Result value: soluble

Input sequence: PRVELEIPEDVDAEQDHLDITVEGDNGSVTRRLWYPDIDVSVDGDTVVIESDEDNAKTMSTIGTFQSHIENMFHGVTEGWEYGMEVFYSHFPMQVNVEGDEVVIENFLGEKAPRRTTIHGDTDVEIDGEELTVSGPDIEAVGQTAADIEQLTRINDKDVRVFQDGVYITRKPNRGDA
Result value: soluble

Input sequence: MYGVLVWPPEDLRRFMEELQAARGVRGFGPPHLNLRQPFDWPYEEEALRIALAGILRGHPPFRVRLGDWRFFPQGVVYLRAYGGGAFRRLYHALEPLAPPLKEIEGPSYIPHLTLALGLSPEEAKALAQSLPPPPRRSFLVREAALVRDEGEGLVEVARFPLGPSPER
Result value: soluble

Input sequence: GAMGDPGLVSAYGAGLEGGVTGNPAEFVVNTSNAGAGALSVTIDGPSKVKMDCQECPEGYRVTYTPMAPGSYLISIKYGGPYHIGGSPFKAKVTGPRLV
Result value: soluble

Input sequence: MSPILAKNIVYVAQIKGQITSYTYDQFDRYITIAEQDNAEAIIIELDTPGGRADAMMNIVQRIQQSKIPVIIYVYPPGASAASAGTYIALGSHLIAMAPGTSIGACRPILGYSQNGSIIEAPPKITNYFIAYIKSLAQESGRNATIAEEFITKDLSLTPEEALKYGVIEVVARDINELLKKSNGMKTKIPVNGRYVTLNFTNVEVRYLAPSFKDKLISYITDLEHHHHHH
Result value: soluble

Input sequence: MAGAKHIIDTSFLTQLDRYAIPLSRRVTAVHTGSHQSTRTGAGLDIIDHRKYNQGDSLKRIDWNLYARTEKLYIRRFEEDKNLNMVILLDASSSMLFPDNTPNKFEYAATVAAGVSYIVMKHNDVYTIATFADDVDYTKSHKGRDDFLRTIDNLTQIPVSGTTKLADCADSIYPRIKSKSMVLIMSDFLDNLDSVQKAVNRLSRHELVIVHIYDENEINLPESVDGTVKFIDSETGEEISFTVGAGFKKEYASEYSKHMAELEKIAYDFKIPYFRVSIKNEPFDTVLKIIGEG
Result value: not soluble

Now consider a different sequence.
Consider the sequence shown here: MGHHHHHHSHMGHLDKEGLCTQGSSFSWLLRVLNDGISLGLTPCLWDMYLLEGEQMLMLITSIAFKVQRSLYEETNKETWGPATPRALKGTGRARPICESLHSSLQALTASESSRGPSLLQTPPRVPGQQALSRGDKGISVSLSLPSLPSRRGRCGRIIG What is its recorded soluble on expression in E. coli?
not soluble
